Assay Target: recombinant human DAO (diamine oxidase) (Homo sapiens)
Construct: purchased R&D systems
Sequence (P19801 20-751): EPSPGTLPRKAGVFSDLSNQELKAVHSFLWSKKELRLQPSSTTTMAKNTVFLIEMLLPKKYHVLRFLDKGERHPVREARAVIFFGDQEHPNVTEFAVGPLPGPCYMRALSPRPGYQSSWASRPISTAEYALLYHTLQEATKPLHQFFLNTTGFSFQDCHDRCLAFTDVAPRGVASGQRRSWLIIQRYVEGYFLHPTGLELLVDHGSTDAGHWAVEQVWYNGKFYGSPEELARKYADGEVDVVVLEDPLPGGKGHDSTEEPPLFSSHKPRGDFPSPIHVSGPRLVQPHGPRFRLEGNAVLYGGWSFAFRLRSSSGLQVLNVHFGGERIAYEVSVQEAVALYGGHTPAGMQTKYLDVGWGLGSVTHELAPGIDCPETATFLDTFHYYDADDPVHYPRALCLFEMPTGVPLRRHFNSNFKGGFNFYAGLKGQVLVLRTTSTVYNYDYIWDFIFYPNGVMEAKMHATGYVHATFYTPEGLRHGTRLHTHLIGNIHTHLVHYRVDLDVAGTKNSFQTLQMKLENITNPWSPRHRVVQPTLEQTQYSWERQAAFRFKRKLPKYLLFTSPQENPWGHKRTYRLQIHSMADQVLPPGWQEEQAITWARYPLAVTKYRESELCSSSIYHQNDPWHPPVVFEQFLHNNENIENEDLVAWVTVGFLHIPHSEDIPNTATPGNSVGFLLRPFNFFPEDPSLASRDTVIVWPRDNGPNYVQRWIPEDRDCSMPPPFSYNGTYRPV
Assay Text: Activity evaluation on recombinant human DAO (Amplex Red/HRP-coupled assay, 1 mM putrescine substrate)
Assay type: biochemical
Condition Details: 1 mM putrescine, read-out: Inhibitory Activity (IC50, nM) DAO
Counter-ions that a name gives are not always drawn.
Measure: IC50 (nM)

Solved cases below.
What measured IC50 goes with NCC(Cn1ncn(-c2cnc(-c3ccc(N4CCNCC4)cc3)cn2)c1=O)=C(F)F [Example 90, Ditrifluoroacetate] ?
30

What measured IC50 goes with CN(C)c1ccc(-c2ccc(-n3cnn(CC(CN)=C(F)F)c3=O)cn2)cn1 [Example 41, Trifluoroacetate] ?
120

What measured IC50 goes with CN1C(=O)CCc2cc(-c3cnc(-n4cnn(CC(CN)=C(F)F)c4=O)cn3)ccc21 [Example 94, Trifluoroacetate] ?
4

What measured IC50 goes with NCC(Cn1ncn(Cc2cc(-c3ccc(C(F)(F)F)nc3)cs2)c1=O)=C(F)F [Example 148, Trifluoroacetate] ?
6300

What measured IC50 goes with Cc1cc(-c2ccc(-n3cnn(CC(CN)=C(F)F)c3=O)cc2F)cc2c1NC(=O)CC2 [Example 29, Trifluoroacetate] ?
200

P = Cc1cc(-c2ccc3c(c2)CCC(=O)N3C)cnc1-n1cnn(CC(CN)=C(F)F)c1=O [Example 74, Trifluoroacetate]
Q = NCC(Cn1ncn(-c2ccc(-c3ccc4c(c3)OCO4)nc2)c1=O)=C(F)F [Example 42, Trifluoroacetate]
R = CCn1cc(-c2ccc(Cn3cnn(CC(CN)=C(F)F)c3=O)s2)ccc1=O [Example 122, Trifluoroacetate]
S = CNC(=O)c1ccc(-c2ccc(Cn3cnn(CC(CN)=C(F)F)c3=O)s2)cc1 [Example 104, trifluoroacetate]
Give the ascending ranking of the items by reported IC50. # list labels per requested ordering
Q, P, S, R
